Data origin: patent US10428140B2

# testedTarget: T1, human EphA4 (Homo sapiens, UniProt P54764)
# T1 construct: made in house; not restated for the human SEAP-His protein
# T1 sequence (P54764 20-547): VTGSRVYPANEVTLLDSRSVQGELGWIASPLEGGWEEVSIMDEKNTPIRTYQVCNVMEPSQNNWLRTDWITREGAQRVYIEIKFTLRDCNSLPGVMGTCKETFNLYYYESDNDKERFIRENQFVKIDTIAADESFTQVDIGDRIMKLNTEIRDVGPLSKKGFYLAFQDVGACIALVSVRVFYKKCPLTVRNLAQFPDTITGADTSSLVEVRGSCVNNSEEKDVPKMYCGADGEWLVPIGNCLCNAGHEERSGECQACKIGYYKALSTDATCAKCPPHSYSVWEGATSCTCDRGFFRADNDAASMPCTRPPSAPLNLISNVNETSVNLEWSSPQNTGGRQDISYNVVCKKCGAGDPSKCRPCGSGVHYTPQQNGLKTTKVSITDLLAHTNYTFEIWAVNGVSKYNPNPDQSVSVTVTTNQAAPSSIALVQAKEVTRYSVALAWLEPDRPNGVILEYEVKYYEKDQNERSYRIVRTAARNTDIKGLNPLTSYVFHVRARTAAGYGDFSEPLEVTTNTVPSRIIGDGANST
# experimentNotes: Affinity of humanized antibodies by SPR (Biacore T200)
# Format: binding
# conditionSummary: human EphA4 extracellular region-SEAP-His; 1:1 binding model
reportedEndpoint: kd
A bare number is not enough; add the unit after it.

Before answering, review these 5 worked examples.
>  <molecule>
141 (antibody, V domains shown, synthetic humanized antibody heavy chain variable region sequence; synthetic humanized antibody light chain variable region sequence) VH: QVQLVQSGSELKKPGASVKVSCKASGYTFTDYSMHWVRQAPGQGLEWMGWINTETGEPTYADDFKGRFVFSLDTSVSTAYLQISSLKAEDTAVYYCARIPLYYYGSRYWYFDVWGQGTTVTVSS VL: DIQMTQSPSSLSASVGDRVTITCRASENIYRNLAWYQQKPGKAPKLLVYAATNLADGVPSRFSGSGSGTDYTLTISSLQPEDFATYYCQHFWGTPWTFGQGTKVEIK

>  <kd>
0.00062 s⁻¹

$$$$
>  <molecule>
83 (antibody, V domains shown, constant regions without entry; synthetic humanized antibody light chain variable region sequence; synthetic humanized antibody heavy chain variable region sequence) VL: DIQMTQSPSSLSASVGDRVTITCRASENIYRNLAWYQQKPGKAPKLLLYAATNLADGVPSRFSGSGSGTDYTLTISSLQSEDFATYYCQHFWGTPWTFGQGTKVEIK VH: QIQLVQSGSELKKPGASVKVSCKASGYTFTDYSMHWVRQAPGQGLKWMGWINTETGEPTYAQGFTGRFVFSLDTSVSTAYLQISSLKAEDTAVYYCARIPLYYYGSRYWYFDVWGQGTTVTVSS

>  <kd>
0.00054 s⁻¹

$$$$
>  <molecule>
94 (antibody, V domains shown, constant regions without entry; synthetic humanized antibody light chain variable region sequence; synthetic humanized antibody heavy chain variable region sequence) VL: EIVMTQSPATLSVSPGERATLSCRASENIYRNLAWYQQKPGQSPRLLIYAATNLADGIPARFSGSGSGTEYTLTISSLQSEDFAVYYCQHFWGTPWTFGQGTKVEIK VH: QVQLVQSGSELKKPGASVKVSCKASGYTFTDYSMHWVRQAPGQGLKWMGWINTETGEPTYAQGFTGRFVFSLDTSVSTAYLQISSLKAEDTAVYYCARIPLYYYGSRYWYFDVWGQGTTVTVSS

>  <kd>
0.00024 s⁻¹

$$$$
>  <molecule>
160 (antibody, V domains shown, synthetic humanized antibody heavy chain variable region sequence; synthetic humanized antibody light chain variable region sequence) VH: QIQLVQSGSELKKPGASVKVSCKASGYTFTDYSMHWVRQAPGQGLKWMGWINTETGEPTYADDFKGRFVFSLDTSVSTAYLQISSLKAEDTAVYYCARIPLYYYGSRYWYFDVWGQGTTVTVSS VL: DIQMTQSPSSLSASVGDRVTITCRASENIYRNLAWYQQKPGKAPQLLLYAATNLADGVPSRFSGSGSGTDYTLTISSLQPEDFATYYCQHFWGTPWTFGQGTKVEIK

>  <kd>
0.00061 s⁻¹

$$$$
>  <molecule>
96 (antibody, V domains shown, constant regions without entry; synthetic humanized antibody light chain variable region sequence; synthetic humanized antibody heavy chain variable region sequence) VL: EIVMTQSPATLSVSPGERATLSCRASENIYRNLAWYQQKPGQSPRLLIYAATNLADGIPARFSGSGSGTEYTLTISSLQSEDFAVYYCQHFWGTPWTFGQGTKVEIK VH: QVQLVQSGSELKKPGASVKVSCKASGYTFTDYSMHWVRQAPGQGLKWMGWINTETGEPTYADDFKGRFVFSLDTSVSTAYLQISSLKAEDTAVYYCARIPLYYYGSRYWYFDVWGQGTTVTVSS

>  <kd>
0.00031 s⁻¹

$$$$

Return reported kd; argument: 135 (antibody, V domains shown, synthetic humanized antibody heavy chain variable region sequence; synthetic humanized antibody light chain variable region sequence) VH: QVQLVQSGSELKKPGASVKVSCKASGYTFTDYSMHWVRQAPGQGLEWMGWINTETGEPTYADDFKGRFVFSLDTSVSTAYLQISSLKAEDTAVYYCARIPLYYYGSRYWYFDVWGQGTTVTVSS VL: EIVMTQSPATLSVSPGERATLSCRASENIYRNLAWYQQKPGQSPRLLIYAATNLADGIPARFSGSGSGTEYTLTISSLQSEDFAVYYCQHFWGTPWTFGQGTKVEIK
0.0004 s⁻¹

Similarly, 144 (antibody, V domains shown, synthetic humanized antibody heavy chain variable region sequence; synthetic humanized antibody light chain variable region sequence) VH: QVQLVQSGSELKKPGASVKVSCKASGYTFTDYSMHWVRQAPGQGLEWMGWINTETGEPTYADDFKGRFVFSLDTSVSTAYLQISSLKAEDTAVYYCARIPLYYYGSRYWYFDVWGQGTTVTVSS VL: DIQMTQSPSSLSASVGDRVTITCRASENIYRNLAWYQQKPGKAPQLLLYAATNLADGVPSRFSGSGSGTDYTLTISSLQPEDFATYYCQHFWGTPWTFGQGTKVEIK ?
0.00078 s⁻¹
